Cited source for all entries: patent US20170002055A1

# Target System: HLA-A*02:01 (Homo sapiens, UniProt P04439, D140Y/D185E/D98H/E176V/E277Q/G131W/G231S/I119V/I121R/I166T/I218V/L300P/L318F/N151K/N90K/P208A/P217A/Q86G/Q94H/R138H/R169H/T345S)
# Experimental Protocol: MHC binding assay (UV-ligand exchange, β2m ELISA, peptide exchange yield)
# Test Context: MHC class I binding score; binding to HLA-A*02:01 ranged by peptide exchange yield (UV-ligand exchange, β2m ELISA)
# Description: Candidate peptides for T cell based therapies according to the present invention were further tested for their MHC binding capacity (affinity). The individual peptide-MHC complexes were produced by UV-ligand exchange, where a UV-sensitive peptide is cleaved upon UV-irradiation, and exchanged with the peptide of interest as analyzed. Only peptide candidates that can effectively bind and stabilize the peptide-receptive MHC molecules prevent dissociation of the MHC complexes. […]
Assay Readout: Peptide exchange

Below, 6 substances whose answers are already recorded.
Substance | Peptide exchange
47 (ILLSVPLLVV; listed as Homo sapiens) [compound 47] | “++” (≧20% = ++)
118 (KLIDNNINV; listed as Homo sapiens) [compound 118] | “+++” (≧50 = +++)
353 (YLFEMDSSL; listed as Homo sapiens) [compound 353] | “++” (≧20% = ++)
402 (VLFSGALLGL; listed as Homo sapiens) [compound 402] | “++” (≧20% = ++)
280 (VLPDPEVLEAV; listed as Homo sapiens) [compound 280] | “+++” (≧50 = +++)
496 (FLVEKQPPQV; listed as Homo sapiens) [compound 496] | “+++” (≧50 = +++)

Which Peptide exchange reading was recorded for the substance 205 (SLYPGTETMGL; listed as Homo sapiens) [compound 205] ?
“+++” (≧50 = +++)

Which Peptide exchange reading was recorded for the substance 70 (GLLDYPVGV; listed as Homo sapiens) [compound 70] ?
“+++” (≧50 = +++)

Which Peptide exchange reading was recorded for the substance 77 (ILVEADGAWVV; listed as Homo sapiens) [compound 77] ?
“++++” (≧75% = ++++)

Which Peptide exchange reading was recorded for the substance 146 (SLATAGDGLIEL; listed as Homo sapiens) [compound 146] ?
“++” (≧20% = ++)

Which Peptide exchange reading was recorded for the substance 286 (YLFPGIPEL; listed as Homo sapiens) [compound 286] ?
“+++” (≧50 = +++)

Which Peptide exchange reading was recorded for the substance 94 (YLIDIKTIAI; listed as Homo sapiens) [compound 94] ?
“++” (≧20% = ++)

Which Peptide exchange reading was recorded for the substance 465 (QLCDLNAEL; listed as Homo sapiens) [compound 465] ?
“+++” (≧50 = +++)

Which Peptide exchange reading was recorded for the substance 456 (LLIGHLERV; listed as Homo sapiens) [compound 456] ?
“+++” (≧50 = +++)

Which Peptide exchange reading was recorded for the substance 506 (KLLGKVETA; listed as Homo sapiens) [compound 506] ?
“+++” (≧50 = +++)

Which Peptide exchange reading was recorded for the substance 331 (KVDTVWVNV; listed as Homo sapiens) [compound 331] ?
“+++” (≧50 = +++)

Which Peptide exchange reading was recorded for the substance 479 (SLFGNSGILENV; listed as Homo sapiens) [compound 479] ?
“+++” (≧50 = +++)

Which Peptide exchange reading was recorded for the substance 208 (KISPVTFSV; listed as Homo sapiens) [compound 208] ?
“+++” (≧50 = +++)

Which Peptide exchange reading was recorded for the substance 73 (NIFDLQIYV; listed as Homo sapiens) [compound 73] ?
“+++” (≧50 = +++)

Which Peptide exchange reading was recorded for the substance 98 (LIIDQADIYL; listed as Homo sapiens) [compound 98] ?
“+++” (≧50 = +++)

Which Peptide exchange reading was recorded for the substance 218 (SALEELVNV; listed as Homo sapiens) [compound 218] ?
“++” (≧20% = ++)

Which Peptide exchange reading was recorded for the substance 614 (LLLPDQPPYHL; listed as Homo sapiens) [compound 614] ?
“+++” (≧50 = +++)

Which Peptide exchange reading was recorded for the substance 333 (FLPDANSSV; listed as Homo sapiens) [compound 333] ?
“++” (≧20% = ++)

Which Peptide exchange reading was recorded for the substance 124 (ALYETELADA; listed as Homo sapiens) [compound 124] ?
“++” (≧20% = ++)

Which Peptide exchange reading was recorded for the substance 179 (KVLNELYTV; listed as Homo sapiens) [compound 179] ?
“+++” (≧50 = +++)

Which Peptide exchange reading was recorded for the substance 511 (FLDPYCSASV; listed as Homo sapiens) [compound 511] ?
“++” (≧20% = ++)

Which Peptide exchange reading was recorded for the substance 237 (ALLEASGTLLL; listed as Homo sapiens) [compound 237] ?
“++++” (≧75% = ++++)

Which Peptide exchange reading was recorded for the substance 311 (RLYTGMHTV; listed as Homo sapiens) [compound 311] ?
“+++” (≧50 = +++)

====

# Target System: HLA-A*02:01 (Homo sapiens, UniProt P04439, D140Y/D185E/D98H/E176V/E277Q/G131W/G231S/I119V/I121R/I166T/I218V/L300P/L318F/N151K/N90K/P208A/P217A/Q86G/Q94H/R138H/R169H/T345S)
# Experimental Protocol: MHC binding assay (UV-ligand exchange, β2m ELISA, peptide exchange yield)
# Test Context: MHC class I binding score; binding to HLA-A*02:01 ranged by peptide exchange yield (UV-ligand exchange, β2m ELISA)
Assay Readout: Peptide exchange

Substance | Peptide exchange
79 (SLFIGEKAVLL; listed as Homo sapiens) [compound 79] | “+++” (≧50 = +++)
481 (GLIEDYEALL; listed as Homo sapiens) [compound 481] | “+++” (≧50 = +++)
450 (FMIDASVHPTL; listed as Homo sapiens) [compound 450] | “+++” (≧50 = +++)
464 (ALNDCIYSV; listed as Homo sapiens) [compound 464] | “+++” (≧50 = +++)
557 (KLYDDMIRL; listed as Homo sapiens) [compound 557] | “+++” (≧50 = +++)
157 (SLNDEVPEV; listed as Homo sapiens) [compound 157] | “++” (≧20% = ++)
509 (FLFDTKPLIV; listed as Homo sapiens) [compound 509] | “+++” (≧50 = +++)
251 (ALYTGFSILV; listed as Homo sapiens) [compound 251] | “++” (≧20% = ++)

Which Peptide exchange reading was recorded for the substance 437 (SMAPGLVIQAV; listed as Homo sapiens) [compound 437] ?
“+++” (≧50 = +++)

Which Peptide exchange reading was recorded for the substance 550 (FLYDEIEAEVNL; listed as Homo sapiens) [compound 550] ?
“+++” (≧50 = +++)

Which Peptide exchange reading was recorded for the substance 48 (ALAELYEDEV; listed as Homo sapiens) [compound 48] ?
“+++” (≧50 = +++)

Which Peptide exchange reading was recorded for the substance 562 (YLEELPEKLKL; listed as Homo sapiens) [compound 562] ?
“+++” (≧50 = +++)

Which Peptide exchange reading was recorded for the substance 556 (FLTDLEDLTL; listed as Homo sapiens) [compound 556] ?
“+++” (≧50 = +++)

====

# Target System: HLA-A*02:01 (Homo sapiens, UniProt P04439, D140Y/D185E/D98H/E176V/E277Q/G131W/G231S/I119V/I121R/I166T/I218V/L300P/L318F/N151K/N90K/P208A/P217A/Q86G/Q94H/R138H/R169H/T345S)
# Experimental Protocol: MHC binding assay (UV-ligand exchange, β2m ELISA, peptide exchange yield)
# Test Context: MHC class I binding score; binding to HLA-A*02:01 ranged by peptide exchange yield (UV-ligand exchange, β2m ELISA)
Assay Readout: Peptide exchange

Substance | Peptide exchange
163 (ALDEMGDLLQL; listed as Homo sapiens) [compound 163] | “+++” (≧50 = +++)
359 (YLLPESVDL; listed as Homo sapiens) [compound 359] | “+++” (≧50 = +++)
452 (ILLEHGADPNL; listed as Homo sapiens) [compound 452] | “+++” (≧50 = +++)
407 (YLMDLINFL; listed as Homo sapiens) [compound 407] | “+++” (≧50 = +++)
183 (FGLDLVTEL; listed as Homo sapiens) [compound 183] | “+++” (≧50 = +++)

Which Peptide exchange reading was recorded for the substance 384 (ILFANPNIFV; listed as Homo sapiens) [compound 384] ?
“+++” (≧50 = +++)

Which Peptide exchange reading was recorded for the substance 113 (GLLPTPLFGV; listed as Homo sapiens) [compound 113] ?
“+++” (≧50 = +++)

Which Peptide exchange reading was recorded for the substance 38 (FLLEDDIHVS; listed as Homo sapiens) [compound 38] ?
“+++” (≧50 = +++)

Which Peptide exchange reading was recorded for the substance 135 (ALSEVDFQL; listed as Homo sapiens) [compound 135] ?
“+++” (≧50 = +++)
